- target-system: T1, 鼠GAS6 his蛋白(Sino Biological，Cat#58026-M08H) (mouse, UniProt Q61592 28-674)
- T1 construct: Bought protein; also called 小鼠 GAS6; not shown: His tag
- T1 sequence (looked up): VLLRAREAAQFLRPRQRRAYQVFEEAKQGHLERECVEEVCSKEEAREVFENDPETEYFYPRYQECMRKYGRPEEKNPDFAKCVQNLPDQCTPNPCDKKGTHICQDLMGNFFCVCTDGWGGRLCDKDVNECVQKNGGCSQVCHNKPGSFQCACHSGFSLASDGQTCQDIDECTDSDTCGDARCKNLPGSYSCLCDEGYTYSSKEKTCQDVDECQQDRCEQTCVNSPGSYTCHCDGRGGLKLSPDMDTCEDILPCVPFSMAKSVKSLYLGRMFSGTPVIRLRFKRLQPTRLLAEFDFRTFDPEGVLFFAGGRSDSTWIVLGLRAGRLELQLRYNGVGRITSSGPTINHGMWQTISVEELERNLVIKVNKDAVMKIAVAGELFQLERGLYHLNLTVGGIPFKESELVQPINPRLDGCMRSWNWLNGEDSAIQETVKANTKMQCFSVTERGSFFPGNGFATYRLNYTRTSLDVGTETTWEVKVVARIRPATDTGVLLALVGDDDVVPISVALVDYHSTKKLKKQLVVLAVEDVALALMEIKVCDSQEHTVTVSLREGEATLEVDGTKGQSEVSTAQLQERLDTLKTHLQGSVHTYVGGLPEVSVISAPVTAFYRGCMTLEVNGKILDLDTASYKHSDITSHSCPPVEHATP
- procedure-details: ELISA, coated mouse GAS6 his 0.5 ug/ml
result-type: pEC50
Bear in mind: pEC50 is minus log10 of a mol/L concentration; give just that figure.

Prompt: Please report pEC50 for the following binder: ch2D3C6 (antibody, human IgG1, kappa, V domains shown, Human-mouse chimeric antibody, mouse VH/VL cloned into pTT5_hIgG1.G1m3 / pTT5_hKappa.Km3, made in HEK293; also called ch2D3C6-IgG) VH: DIQLQESGPGLVKPSQSLSLTCSVTGYSITNGYYWNWIRQFPGNKLEWMGYISYDGTNNYNPSLKNRISITRDTSKNQFFLKLNSVTTEDTATYYCARRALWYYAMDYWGQGTSVTVSS VL: DIVMTQSPASLAVSLGQRATISCKASQSVDYDGESYMNWYQQKPGQPPKLLIYVASNLESGIPARFSGSGSGTDFTLNIHPVEEEDAATYYCQQSDEDPYTFGGGTKLEIKR
Response: 8.85

Prompt: Please report pEC50 for the following binder: ch2O18G6 (antibody, human IgG1, kappa, V domains shown, Human-mouse chimeric antibody, hIgG1 (G1m3) / human kappa (Km3), made in HEK293; also called ch2O18G6-IgG) VH: QVQLQQSGPELVKPGASVKISCKTSGNTFTEYIMHWVKQSHGKSLEWIGGINPKNGGTSYNQKFKGKATLTVDKSSRTAYMELRSLTSEDSAVYYCARVRIPPYVYYAMDYWGQGTTVTVSS VL: DVVVTQTPLSLPVSLGDQASISCRSSQSIVHSNGNTYLEWYLQKPGQSPKLLIYKVSNRFSGVPDRFSGSGSGTDFTLKISRVEAEDLGVYYCFQGSHVPYTFGGGTKLEIKR
Response: 9.66

Prompt: Please report pEC50 for the following binder: ch15G5E5 (antibody, human IgG1, kappa, V domains shown, Human-mouse chimeric antibody, hIgG1 (G1m3) / human kappa (Km3), made in HEK293; also called ch15G5E5-IgG) VH: EVQLQQSGPELVKPGASVKMSCKASGYTFTDDYMKWVKQSHGKSLEWIGDINPNNGGTIYNQKFKGKAILTVDKSSSTAYMQLNSLTSEDSAVYYCARRGRGSWGQGTTVTVSS VL: DVLMTQTPLSLPVSLGDQASISCRSSQSIVYSNGNTYLEWYLQKPGQSPKLLIYRVSNRFSGVPDRFSGSGSGTDFTLKISRVEAEDLGIYYCFQGSHVPLTFGAGTKLELKR
Response: 8.31

Prompt: Please report pEC50 for the following binder: ch18I16C6 (antibody, human IgG1, kappa, V domains shown, Human-mouse chimeric antibody, hIgG1 (G1m3) / human kappa (Km3), made in HEK293; also called ch18I16C6-IgG) VH: EVKIEESGGGLVKPGGSLKLSCAASGFTFSSYAMSWFRQTPEKRLEWVASISSGGNSYYPDSVKGRFTISRDNARNILYLQMSSLRSEDTAMYYCSRTPDYWGQGTTVTVSS VL: DVVMTQSPSSMCASLGERVTITCKASQDINTYLSWFQQKPGKSPKTLIYRANRLVDGVPSRFSGSGSGQDYSLTISSLEYEDMGIYYCLQYDEFPFTFGSGTKLEIKR
Response: 10.00

These measurements were taken from patent CN114591431A.
